# Tested on: intracellular susceptible S. Typhimurium (ATCC 700720)
# Method Summary: Intracellular gentamicin protection assay, susceptible S. Typhimurium in RAW 264.7 macrophages
# Type: cell-based, Salmonella enterica serovar Typhimurium
# Experimental Parameters: Salmonella enterica, RAW264.7, Table 2; intracellular burden 50% in RAW 264.7; read-out: Susc. IC50
Entries and their pIC50
// pIC50 is dimensionless: -log10 of concentration (M)

Fc1cccc(CN2CCC(Nc3ccc(-n4nc(C(F)(F)F)cc4C4CCCCC4)cc3)CC2)c1 :: 6.85
NCC(=O)Nc1ccc(-n2nc(C(F)(F)F)cc2-c2ccc3c(ccc4ccccc43)c2)cc1 [AR-12, reference compound] :: 6.40
FC(F)(F)c1cc(C2CCCCC2)n(-c2ccc(N3CCC(NCc4ccccc4)C3)cc2)n1 (stereo not shown) :: 6.89
FC(F)(F)c1cc(C2CCCCC2)n(-c2ccc(OC3CCN(Cc4ccccc4)C3)cc2)n1 (stereo not shown) :: 6.51
N#Cc1ccc(CNC2CCN(c3ccc(-n4nc(C(F)(F)F)cc4C4CCCCC4)cc3)C2)cc1 (stereo not shown) :: 6.82

Lab note: NC1CCN(c2ccc(-n3nc(C(F)(F)F)cc3C3CCCCC3)cc2)CC1 gave pIC50 of 7.10

pIC50 reading for FC(F)(F)c1cc(C2CCCCC2)n(-c2ccc(OC3CCNCC3)cc2)n1 : 7.10

response.value for FC(F)(F)c1cc(C2CCCCC2)n(-c2ccc(NC3CCN(Cc4ccccc4)CC3)cc2)n1 (field: pIC50) = 6.96

The molecule listed as NCC(=O)Nc1ccc(-n2nc(C(F)(F)F)cc2C2CCCCC2)cc1 shows pIC50 equal to 7.10

The measured pIC50 associated with N#Cc1ccc(CN2CCC(Nc3ccc(-n4nc(C(F)(F)F)cc4C4CCCCC4)cc3)CC2)cc1 reads 7.00

// pIC50 lookup, molecule = FC(F)(F)c1cc(C2CCCCC2)n(-c2ccc(OC3CCN(Cc4ccccc4)CC3)cc2)n1 , result: 6.85
